Tested on: OVCAR-8 ovarian
Procedure summary: NCI-60 one-dose screen, 48 h (100 = growth as untreated, 0 = no growth, -100 = all killed)
Protocol conditions: 10 µM unless noted
The panel holds about 83,000 compounds, 20% with a hit somewhere; the sample as a whole holds those more often.
Reported metric: growth (%)
Answers are plain numbers, in %.

CC(=O)O[C@H](C[C@H](C(C)C)N(C)C(=O)[C@@H](NC(=O)[C@H]1CCCCN1C)C(C)C)c1nc(C(=O)N[C@@H](Cc2ccccc2)C[C@H](C)C(=O)O)c(CCOCc2ccccc2)s1 ... 10.8
CNCc1cccnc1 ... 103
CC(=O)[C@H]1CC[C@H]2[C@@H]3CC[C@H]4C[C@H](N)CC[C@]4(C)[C@H]3CC[C@]12C ... 90

Read the next record carefully.
stdin: Record request: growth value, item "CN(C)C(=O)Oc1ccc(Br)cc1"
stdout: 106
